Every entry's value here was drawn from the supplement of paper PMC9942255.

System: Bacillus subtilis DB104 (SP-AmyQ fusion secretion)
Assay: AmyQ secretion efficiency, weighted average sort bin (1 = best secretion, 10 = worst) (bin number (weighted average, 1-10)); higher = lower secretion efficiency
MEASUREMENT_TYPE: AmyQ secretion efficiency
Lab note: record just the number, no unit beside it.

Solved cases (8 shown):
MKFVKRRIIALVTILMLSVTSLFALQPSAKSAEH
2.64
MFFTIVAGLAVSAVVGSSMAAAPAEAKTI
2.75
MKNMSCKLVVSVTLFFSFLKRRPLAHAQNS
8.2
MKKIGLLFMLCLAALFTIGFPAQQADAEED
2.27
MNRRKILLSSALSLGMLVSAAPVLATSS
2.39
MKRMIVRMTLPLLIVCLAFSKKSASARAASE
7.39
MKSKGSIMACLILFSFTITTFINTETISRFSN
8.63
MKLKSKLLLSCLALSTVFVATTIANCPTH
7.55

Bacillus subtilis DB104 (SP-AmyQ fusion secretion) data for MKKKNSISSLNMLAAGLTASAIVGTTLVVTPAEAATI ; its AmyQ secretion efficiency: 2.17

Bacillus subtilis DB104 (SP-AmyQ fusion secretion) data for MMIMQCVICLSLLVFGTTAAHAEET ; its AmyQ secretion efficiency: 2.38

====

Test system: Bacillus subtilis DB104 (SP-AmyQ fusion secretion)
Assay: AmyQ secretion efficiency, weighted average sort bin (1 = best secretion, 10 = worst) (bin number (weighted average, 1-10)); higher = lower secretion efficiency
MEASUREMENT_TYPE: AmyQ secretion efficiency
Lab note: record just the number, no unit beside it.

Solved cases (5 shown):
MPIKKKVMMCLAVTLVFGSMSFPTLTNSGGFPE
5.65
MKKVRRATALFLGLTPAGANAADL
7.17
MLKKVKRRRFILVGSTLGAFSFSSDASAKHV
7.34
MSGSSVMMLALTAAAGLGLTALHSAPAAKAAPL
2.7
MRPLILSAVLFLSCFFGARQTEASASKR
3.63

The value of AmyQ secretion efficiency measured for the sequence MKKGIIRFLLVSFVLFFALSTGITGVQCAPA turned out to be 6.36

The value of AmyQ secretion efficiency measured for the sequence MKKRLIAPMLLSAASLAFFAMSGSAQTAAY turned out to be 7.42

The value of AmyQ secretion efficiency measured for the sequence MGMKKKSRTGVASAALGLALVGGGTWAAFN turned out to be 5.34

The value of AmyQ secretion efficiency measured for the sequence MHLIRQSQGYCQYTVLIAGCRFNEDQHQAEGENT turned out to be 6.47

The value of AmyQ secretion efficiency measured for the sequence MTTKFTALAVFLLCFMPAAVIEHTQASLL turned out to be 5.46

====

Catalogue of AmyQ secretion efficiency values
System: Bacillus subtilis DB104 (SP-AmyQ fusion secretion)
Assay: AmyQ secretion efficiency, weighted average sort bin (1 = best secretion, 10 = worst) (bin number (weighted average, 1-10)); higher = lower secretion efficiency

MKKLLAAGIIGLLTVSIASPSFLAEK
5.65
MMTAIIIAIIAAVIVIAALITFNVRNASPG
6.42
MPYLKRVLLLLVTGLFMSLFAVTATESAQTG
4.4
MSSMTCKLVVSVTLFFSFLTIGPLAHAQNS
1.57
MSRITINIITMFIAAAVISLTGTAEAAEK
2.45

The value of AmyQ secretion efficiency measured for the sequence MRSKKLWISLLFALTLIFTMAFSNMSAQPAGK turned out to be 3.56

The value of AmyQ secretion efficiency measured for the sequence MPSCKQLIVCSLAAILLLIPSVSFAADS turned out to be 3.5

The value of AmyQ secretion efficiency measured for the sequence MKRMCSICCAAVLLAGGAAQAEAV turned out to be 3.05

====

Test system: Bacillus subtilis DB104 (SP-AmyQ fusion secretion)
Test: AmyQ secretion efficiency, weighted average sort bin (1 = best secretion, 10 = worst) (bin number (weighted average, 1-10)); higher = lower secretion efficiency
MEASUREMENT_TYPE: AmyQ secretion efficiency
Lab note: record just the number, no unit beside it.

MRKYTVIASILLSFLSVLSGGHHESKAFPR
4.58
MKRNIFNNINLSLLSTLLIGIMLLTFAPSAFAKQD
2
MTKWIVLFLVLIAAAISIFVYVSTGSEK
2.48
MKKGIIRFLLVSFVLFFALSTGSTGVQAAPA
1.88
MPYLKRVLLLLVTGLFMSLFRKKATASAQTG
7.42
MRKVITCVMAASLTLGSLLPAGYASAKED
3.26
MGSTWSLIVCLTALLSVLLVAGSVPFHAEAKKP
4.11
MLKKKWMVGLLAGCLAAGGFSYNAFADEE
6.94
MKIRKLIFNMFLILLSSALSFGMLISAVPALAAGT
3.62
MRPVFPTSQKKYLFLSCFFGARQTEASASKR
7.29

The value of AmyQ secretion efficiency measured for the sequence MMKKGLLAGALTATVLFGTCAVDVPGIISPKTIEAASQ turned out to be 4.02

The value of AmyQ secretion efficiency measured for the sequence MRKSLITLGLASVIGTSSFLIPFTSKTHSAETL turned out to be 6.74

The value of AmyQ secretion efficiency measured for the sequence MKRITINIITMFIAAAVISLTGTAEAASS turned out to be 2.16

The value of AmyQ secretion efficiency measured for the sequence MKKWRYTKRQRKLILAGIALFVFISPLKSHKT turned out to be 6.51

The value of AmyQ secretion efficiency measured for the sequence MKKAAAVLLSLGLVFGFSYGAGHVVEAKTK turned out to be 2.99

The value of AmyQ secretion efficiency measured for the sequence MTTKFKKKRRFLLCFMPAAKIEHTQASLL turned out to be 7.76

====

Catalogue of AmyQ secretion efficiency values
Test system: Bacillus subtilis DB104 (SP-AmyQ fusion secretion)
Assay: AmyQ secretion efficiency, weighted average sort bin (1 = best secretion, 10 = worst) (bin number (weighted average, 1-10)); higher = lower secretion efficiency
Lab note: record just the number, no unit beside it.

MNKLKRLSMLTVMIASVFIFSSHCLAAQY
2.86
MRSYIKGTGRCKLGLILFVPTALADNS
6.59
MRPVFPLILSAVLFLSCFFGARQTEKSASKR
6.8
MKKLLAAGIIGLLTVTLVFLVVLLSIASPSFAAEK
2.43
MRSYIKVLTMCFLGLILFVPTALAEEE
2.15
MKRQGKSKSYAAVILSGWFIADHQTHSQEM
7.16

The value of AmyQ secretion efficiency measured for the sequence MKRFSTAYLLLGILCSAAVFLIGAPSRALGDED turned out to be 6.23

====

Test system: Bacillus subtilis DB104 (SP-AmyQ fusion secretion)
Assay: AmyQ secretion efficiency, weighted average sort bin (1 = best secretion, 10 = worst) (bin number (weighted average, 1-10)); higher = lower secretion efficiency
Lab note: compare AmyQ secretion efficiency against 5. Equal or greater, write 1 (yes). Smaller, write 0 (no).

Illustrative cases are given below, each with its answer.
MMIKQCVICLSLLVFGTIAIAHAEET
0 (no)
MLCVMMLLFSSFPVSAQAKDQ
1 (yes)
MTKRLSTTLTFLGIQAFAGGIILATAVLAAVFYLTDEDQAAAV
1 (yes)

Turning now to a further sequence:
Data request: Could you tell me if the measured AmyQ secretion efficiency of MSGSRVITCVMAASLTLGSLLPAGYASAKED reaches 5 or more?
Data returned: 0 (no)

====

Tested on: Bacillus subtilis DB104 (SP-AmyQ fusion secretion)
Assay: AmyQ secretion efficiency, weighted average sort bin (1 = best secretion, 10 = worst) (bin number (weighted average, 1-10)); higher = lower secretion efficiency
Lab note: compare AmyQ secretion efficiency against 6. Equal or greater, write fulfilled. Smaller, write not fulfilled.

Illustrative cases are given below, each with its answer.
MFNRLFRVCFLAALIMAFTLPNSVYFQKP
fulfilled
MRPVFPLILSAVLFLSCFFGARQTELSASKR
not fulfilled
MLKRTSFVSSLFISSAVLLSILLPSGQTHAQSA
not fulfilled
MVKKWLIQFAVMLSVLSTFTYSASIVGV
fulfilled
MKLAKRVSALTPSTTLAITIKAKEL
fulfilled
MKMKSGMEQAVSVLLLLSRLPVQASNTSE
not fulfilled
MKLAKRVSALTPSTTLAITSKAKEL
fulfilled
MTKKAWFLPLVCVLLISGWLAPAASASAQTD
not fulfilled

Turning now to a further sequence:
Data request: Could you tell me if the measured AmyQ secretion efficiency of MKRLKVSLRVWMVFLMNWVTPDRKTAAAAVY reaches 6 or more?
Data returned: fulfilled

====

Test system: Bacillus subtilis DB104 (SP-AmyQ fusion secretion)
Experiment: AmyQ secretion efficiency, weighted average sort bin (1 = best secretion, 10 = worst) (bin number (weighted average, 1-10)); higher = lower secretion efficiency
Class key for AmyQ secretion efficiency values: bucket 1 (below 3), bucket 2 (3 to below 6), bucket 3 (6 or more)

MRSYIKVLTMCFLGLILFVPTSLADNS
bucket 1
MKRRLSTLLIGIMLLTFAPSAFAKQD
bucket 1
MRSYIKVLTMCFLGLILFVPTLLADNS
bucket 2

Data request: Categorize the following entry: MKLKKRVSMFLVALTMCGGLFVFAAKAVKT
Data returned: bucket 2

Data request: Categorize the following entry: MPYLKRVLLLLVTGLFMSLFAVTATASNQTG
Data returned: bucket 1

Data request: Categorize the following entry: MTMLRKIIGWILLLCIIPLFAFTVIPVVTVASGKEV
Data returned: bucket 2
